EC50_Fold change (Jurkat-NFAT-luciferase activation, normalized to ch40-C12-C10-E9): recorded values
target entity: human CD3 (human, UniProt P07766 23-207; P04234 22-171; P09693 23-182)
Sequence (P07766 23-207, chain 1 of 3): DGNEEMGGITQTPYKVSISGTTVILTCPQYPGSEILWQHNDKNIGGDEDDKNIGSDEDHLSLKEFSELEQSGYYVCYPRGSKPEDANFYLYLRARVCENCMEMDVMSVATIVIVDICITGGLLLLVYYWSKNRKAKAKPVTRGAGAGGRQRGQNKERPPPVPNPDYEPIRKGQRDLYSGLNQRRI
Sequence (P04234 22-171, chain 2 of 3): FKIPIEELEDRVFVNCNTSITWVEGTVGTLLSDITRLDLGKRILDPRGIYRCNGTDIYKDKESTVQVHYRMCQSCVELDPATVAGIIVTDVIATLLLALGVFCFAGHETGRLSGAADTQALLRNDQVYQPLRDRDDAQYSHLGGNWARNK
Sequence (P09693 23-182, chain 3 of 3): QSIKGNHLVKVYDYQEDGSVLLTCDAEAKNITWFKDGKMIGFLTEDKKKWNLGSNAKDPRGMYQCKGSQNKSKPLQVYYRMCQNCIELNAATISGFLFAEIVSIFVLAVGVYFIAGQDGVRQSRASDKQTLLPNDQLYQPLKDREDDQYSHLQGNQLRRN
measurement protocol: cell-based or functional assay
Note: unit fold is implicit; provide only the numeric part.

Previously resolved entries follow.
>>> measured("hu40E9-L2H3-Y101F.H (antibody, V domains shown) VH: EVQLVQSGAEVKKPGSSVKVSCKASGYTFSSYVIHWVRQAPGQGLEWMGYINPYNDVIKYNEKFKGRVTLTSDKSTSTAYMELSSLRSEDTAVYYCARDSFYSYDGFAYWGQGTLVTVSS VL: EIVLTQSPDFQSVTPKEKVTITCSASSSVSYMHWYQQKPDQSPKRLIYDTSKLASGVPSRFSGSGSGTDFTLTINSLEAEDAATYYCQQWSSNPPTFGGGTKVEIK")
1.23
>>> measured("hu40E9-L3H1 (antibody, V domains shown, humanized 40-C12-C10-E9) VH: EVQLVQSGAEVKKPGSSVKVSCKASGGTFSSYVIHWVRQAPGQGLEWMGYINPYNDVIKYNEKFKGRVTITADKSTSTAYMELSSLRSEDTAVYYCARDSYYSYDGFAYWGQGTLVTVSS VL: EIVLTQSPDFQSVTPKEKVTITCSASSSVSYMHWYQQKPDQSPKRWIYDTSKLASGVPSRFSGSGSGTDYTLTINSLEAEDAATYYCQQWSSNPPTFGGGTKVEIK")
1.33
>>> measured("hu40E9-L2H3-D99E.H (antibody, V domains shown) VH: EVQLVQSGAEVKKPGSSVKVSCKASGYTFSSYVIHWVRQAPGQGLEWMGYINPYNDVIKYNEKFKGRVTLTSDKSTSTAYMELSSLRSEDTAVYYCARESYYSYDGFAYWGQGTLVTVSS VL: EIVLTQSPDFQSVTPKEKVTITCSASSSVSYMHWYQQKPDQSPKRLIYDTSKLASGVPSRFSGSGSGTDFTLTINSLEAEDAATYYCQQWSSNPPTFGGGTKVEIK")
1.19
>>> measured("hu40E9-L2H3-S91R.L (antibody, V domains shown) VH: EVQLVQSGAEVKKPGSSVKVSCKASGYTFSSYVIHWVRQAPGQGLEWMGYINPYNDVIKYNEKFKGRVTLTSDKSTSTAYMELSSLRSEDTAVYYCARDSYYSYDGFAYWGQGTLVTVSS VL: EIVLTQSPDFQSVTPKEKVTITCSASSSVSYMHWYQQKPDQSPKRLIYDTSKLASGVPSRFSGSGSGTDFTLTINSLEAEDAATYYCQQWRSNPPTFGGGTKVEIK")
0.79

Read the next record carefully.
Query block: # EC50_Fold change (Jurkat-NFAT-luciferase activation, normalized to ch40-C12-C10-E9) lookup, item hu40E9-L2H3-Y102S.H (antibody, V domains shown) VH: EVQLVQSGAEVKKPGSSVKVSCKASGYTFSSYVIHWVRQAPGQGLEWMGYINPYNDVIKYNEKFKGRVTLTSDKSTSTAYMELSSLRSEDTAVYYCARDSYSSYDGFAYWGQGTLVTVSS VL: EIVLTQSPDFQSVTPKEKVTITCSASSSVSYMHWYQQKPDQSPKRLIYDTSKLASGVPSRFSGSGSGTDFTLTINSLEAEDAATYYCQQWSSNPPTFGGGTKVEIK
Result block: 0.87
